All figures here come from patent US20140221623A1.

Biological target: T1, Human soluble IL6-R (human, UniProt P08887 20-358)
T1 construct: Bought soluble receptor; biotinylated in some Alphascreen assays; also called sIL6-R; hIL-6R
T1 sequence (looked up): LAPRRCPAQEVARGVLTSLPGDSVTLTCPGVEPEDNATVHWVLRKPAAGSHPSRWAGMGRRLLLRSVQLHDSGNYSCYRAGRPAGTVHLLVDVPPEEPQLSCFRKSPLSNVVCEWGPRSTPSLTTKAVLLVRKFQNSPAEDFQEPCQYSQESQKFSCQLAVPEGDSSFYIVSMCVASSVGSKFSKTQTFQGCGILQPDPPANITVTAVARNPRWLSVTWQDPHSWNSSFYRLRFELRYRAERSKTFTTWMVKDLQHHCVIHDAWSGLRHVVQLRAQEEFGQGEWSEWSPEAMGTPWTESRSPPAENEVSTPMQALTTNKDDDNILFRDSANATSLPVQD
Assay: SPR (Biacore 3000), IL6-R on CM5 chip
As shown below, each of these binders has a reported koff value.

binder	koff
IL6R63 (VHH, Humanized variant of IL6R03) VHH: EVQLVESGGGLVQPGGSLRLSCAASGSIFKVNAMGWYRQAPGKGRELVAGIISGGSTNYADSVKGRLTISRDNAKNTLYLQMNSLRPEDTAVYYCSFVTTNSDYDLGRDYWGQGTLVTVSS	0.00365 s⁻¹
IL6R84 (VHH, Humanized variant of IL6R13) VHH: EVQLVESGGGLVQPGGSLRLSCAASGFTFDDYGMSWVRQAPGKGLEWVSAISWNGNNTYYTESMKGRFTISRDNAKNTLYLQMNSLRPEDTAVYYCVKGSTAIVGVPPTYPDEYDYWGQGTLVTVSS	0.00409 s⁻¹
IL6R81 (VHH, Humanized variant of IL6R13) VHH: EVQLVESGGGLVQPGGSLRLSCAASGFTFDDYGMSWVRQAPGRATEWVSAISWNGNNTYYTESMKGRFTISRDNAKNTVYLQMNSLRPEDTAVYYCVKGSTAIVGVPPTYPDEYDYWGQGTLVTVSS	0.000128 s⁻¹
IL6R61 (VHH, Humanized variant of IL6R03) VHH: EVQLVESGGGLVQPGGSLRLSCAASGSIFKVNAMGWYRQAPGKGRELVAGIISGGSTNYADSVKGRLTISRDNAKNTVYLQMNSLRPEDTAVYYCSFVTTNSDYDLGRDYWGQGTLVTVSS	0.0017 s⁻¹
